- Assay System: human GPR139 receptor (Homo sapiens)
- Construct: expressed in transfected cells; host or cells: T-REx-CHO (Thermo Fisher Scientific), doxycycline-induced
- Sequence (Q6DWJ6 1-353): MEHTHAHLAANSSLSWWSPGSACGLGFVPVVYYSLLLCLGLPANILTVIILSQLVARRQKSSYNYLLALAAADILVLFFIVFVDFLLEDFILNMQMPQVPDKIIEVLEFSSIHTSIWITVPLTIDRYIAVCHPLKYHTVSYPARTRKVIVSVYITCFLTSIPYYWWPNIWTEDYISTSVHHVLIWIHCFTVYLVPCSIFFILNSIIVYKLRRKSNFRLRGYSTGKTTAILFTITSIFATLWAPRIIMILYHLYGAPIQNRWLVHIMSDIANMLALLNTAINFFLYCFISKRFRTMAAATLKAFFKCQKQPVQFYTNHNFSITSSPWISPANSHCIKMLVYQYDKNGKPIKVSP
- Protocol Details: Measurement of GPR139 Activation Via Calcium Signaling (FLIPR, T-REx-CHO cells)
- Assay type: cell-based
- Experimental Parameters: T-REx-CHO cells stably expressing human GPR139, 11-point dose response, 10 μM maximum concentration, read-out: GPR139 Potency (pEC50) (converted)
Experimental Endpoint: EC50 (nM)

• Cc1ccc([C@H](C)NC(=O)Cn2ncc3c(cnn3C)c2=O)c(F)c1 = 79.4
• Cc1cn(C2CC2)c2cnn(CC(=O)N[C@@H](C)c3ccc(F)cc3Cl)c(=O)c12 = 79.4
• Cc1ccc([C@H](C)NC(=O)Cn2ncc3c(c(C)nn3C(C)C)c2=O)cc1 = 77.6

====

- Assay System: human GPR139 receptor (Homo sapiens)
- Construct: expressed in transfected cells; host or cells: T-REx-CHO (Thermo Fisher Scientific), doxycycline-induced
- Sequence (Q6DWJ6 1-353): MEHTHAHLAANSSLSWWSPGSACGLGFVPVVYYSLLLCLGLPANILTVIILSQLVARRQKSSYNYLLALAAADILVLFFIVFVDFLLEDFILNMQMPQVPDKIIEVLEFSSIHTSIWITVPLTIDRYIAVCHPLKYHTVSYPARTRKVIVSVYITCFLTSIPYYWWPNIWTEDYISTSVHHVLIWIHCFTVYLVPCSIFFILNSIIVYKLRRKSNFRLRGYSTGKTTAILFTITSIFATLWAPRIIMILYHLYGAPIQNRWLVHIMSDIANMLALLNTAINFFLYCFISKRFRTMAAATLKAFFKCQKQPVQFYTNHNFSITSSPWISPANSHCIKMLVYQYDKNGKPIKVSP
- Protocol Details: Measurement of GPR139 Activation Via Calcium Signaling (FLIPR, T-REx-CHO cells)
- Assay type: cell-based
- Experimental Parameters: T-REx-CHO cells stably expressing human GPR139, 11-point dose response, 10 μM maximum concentration, read-out: GPR139 Potency (pEC50) (converted)
Experimental Endpoint: EC50 (nM)

• C[C@H](NC(=O)Cn1ncc2ccn(C)c2c1=O)c1ccccc1 = 89.1
• Cc1ccc([C@H](C)NC(=O)Cn2nc(C)c3c(cnn3C3CC3)c2=O)c(F)c1 = 145
• C[C@H](NC(=O)Cn1ncc2c(C3CC3)nn(C)c2c1=O)c1cccc(F)c1 = 20
• CC(C)n1nc(C2CC2)c2c(=O)n(CC(=O)N[C@@H](C)c3ccc(C(F)(F)F)cc3)ncc21 = 275
• Cc1nn(C(C)C)c2cnn(CC(=O)N[C@@H](C)c3ccc(OC(F)(F)F)cc3)c(=O)c12 = 234

1: C[C@H](NC(=O)Cn1ncc2c(c(C(F)(F)F)nn2C)c1=O)c1ccc(C(F)(F)F)cc1
2: Cc1ccc([C@H](C)NC(=O)Cn2nc(C)c3c(c(C)nn3C)c2=O)cc1
3: Cc1nn(C)c2cnn(CC(=O)N[C@@H](C)c3ccc(OC(F)(F)F)cc3)c(=O)c12
stdin: Ordering: ascending EC50. I'd appreciate it if you listed the labels in the requested order.
stdout: 3, 1, 2
(3: 37.2 nM, 1: 93.3 nM, 2: 151 nM)

P: Cc1ccc([C@H](C)NC(=O)Cn2nc(C)c3c(C)nn(C(C)C)c3c2=O)cc1
Q: Cc1ccc([C@H](C)NC(=O)Cn2ncc3ccn(C)c3c2=O)c(F)c1
R: Cc1ccc([C@H](C)NC(=O)Cn2ncc3c(c(C(C)C)nn3C)c2=O)cc1
stdin: Arrange by EC50, high to low. Labels, requested order.
stdout: P, R, Q
(P: 115 nM, R: 32.4 nM, Q: 12.6 nM)

====

- Assay System: human GPR139 receptor (Homo sapiens, UniProt Q6DWJ6)
- Construct: expressed in transfected cells; host or cells: T-REx-CHO (Thermo Fisher Scientific), doxycycline-induced
- Protocol Details: Measurement of GPR139 Activation Via Calcium Signaling (FLIPR, T-REx-CHO cells)
- Assay type: cell-based
- Experimental Parameters: T-REx-CHO cells stably expressing human GPR139, 11-point dose response, 10 μM maximum concentration, read-out: GPR139 Potency (pEC50) (converted)
- Text: Measurement of GPR139 Activation Via Calcium Signaling This cell-based assay measures the ability of compounds to activate GPR139 in stably transfected T-REx™-CHO cells. T-REx™-CHO cells (Thermo Fisher Scientific®) are stably expressed with human GPR139 receptor, whose expression is controlled by a tetracycline-inducible element. […]
Here, each record is paired with measured EC50 data.

Known EC50 results, listed for orientation:
* C[C@H](NC(=O)Cn1nc(C2CC2)c2cnn(-c3ccccc3)c2c1=O)c1ccc(OC(F)(F)F)cc1 [Example 45] | ≥ 10 µM
* CC(C)c1nn(CC(=O)N[C@@H](C)c2ccc(OC(F)(F)F)cc2)c(=O)c2c1cnn2-c1ccccc1 [Example 7] | ≥ 10 µM

We next turn to a different compound, shown below.
stdin: Give recorded EC50. Cc1ccc([C@H](C)NC(=O)Cn2nc(C)c3cnn(-c4ccccc4)c3c2=O)c(F)c1 [Example 6]
stdout: ≥ 10 µM
